test: in vitro; details: human, liver microsomes
Description: Intrinsic clearance in human liver microsomes assessed per mg protein in presence of NADPH by LC-MS/MS analysis
attribute.measured: microsomal CLint (µL/min/mg)

>>> data_value("N#Cc1c(N)ncnc1N1CCC[C@H]1c1nc2cccc(F)c2c(=O)n1C1CCCC1")
79.2
>>> data_value("N#Cc1c(N)ncnc1N1CCC[C@H]1c1nc2cccc(F)c2c(=O)n1Cc1ccccc1")
44.6

----------
experiment: in vitro; conditions: rat, liver microsomes
Description: Half life in rat liver microsomes in presence of NADPH by LC-MS/MS analysis
attribute.measured: half-life (min)

>>> data_value("N#Cc1c(N)ncnc1N1CCC[C@H]1c1nc2cccc(F)c2c(=O)n1C1CCCC1")
15.1
>>> data_value("N#Cc1c(N)ncnc1N1CCC[C@H]1c1nc2cccc(F)c2c(=O)n1Cc1ccccc1")
1.6

----------
assay: Half life in Sprague-Dawley rat at 10 mg/kg, po administered via gavage by LC-MS/MS analysis; assay type: ADME, organism-based; settings: in vivo
attribute.measured: half-life

>>> data_value("N#Cc1c(N)ncnc1N1CCC[C@H]1c1nc2cccc(F)c2c(=O)n1C1CCCC1")
"4.1 h"

----------
Listed here are compounds together with their documented CLH.
conditions: rat, microsomes
Description: Intrinsic clearance in liver by measuring in intrinsic clearance in rat liver microsomes in presence of NADPH by LC-MS/MS analysis
attribute.measured: CLH (L/h/kg)

>>> data_value("N#Cc1c(N)ncnc1N1CCC[C@H]1c1nc2cccc(F)c2c(=O)n1C1CCCC1")
0.009906
>>> data_value("O=C(O)Cc1ccccc1Nc1c(Cl)cccc1Cl")
0.00858
>>> data_value("C[C@]12CC[C@H]3[C@@H](CCC4=CC(=O)CC[C@@]43C)[C@@H]1CC[C@@H]2O")
0.22654
>>> data_value("N#Cc1c(N)ncnc1N1CCC[C@H]1c1nc2cccc(F)c2c(=O)n1Cc1ccccc1")
0.093426

Attribution: ChEMBL document CHEMBL4368891
